Biological target: Tryptophan 5-hydroxylase 1 (Homo sapiens) (UniProt P17752)
Sequence (P17752 whole entry, looked up): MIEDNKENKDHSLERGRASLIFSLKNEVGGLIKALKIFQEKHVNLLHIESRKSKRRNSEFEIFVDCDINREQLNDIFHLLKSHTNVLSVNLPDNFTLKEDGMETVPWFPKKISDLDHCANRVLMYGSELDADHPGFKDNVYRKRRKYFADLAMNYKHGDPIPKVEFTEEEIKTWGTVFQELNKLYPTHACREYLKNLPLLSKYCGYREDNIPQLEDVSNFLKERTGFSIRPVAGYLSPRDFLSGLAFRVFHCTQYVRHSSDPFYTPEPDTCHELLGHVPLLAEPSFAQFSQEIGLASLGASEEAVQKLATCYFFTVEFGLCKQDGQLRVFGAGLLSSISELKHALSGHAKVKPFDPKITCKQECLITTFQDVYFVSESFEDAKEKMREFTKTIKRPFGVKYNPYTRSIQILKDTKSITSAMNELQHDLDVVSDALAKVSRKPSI
Assay: Inhibition of TPH1 in human BON cells assessed as inhibition of serotonin biosynthesis
metric name: EC50 (nM)
Enter your answer as a number in nM; do not include the unit.

Determine from records and report EC50 for Cc1cccc(-c2ccccc2C(Oc2cc(-c3ccc(C[C@H](N)C(=O)O)cc3)nc(N)n2)C(F)(F)F)c1 (some centres undefined)
560

Specify measured EC50 for Nc1nc(OC(c2ccccc2-n2ccc(C(F)(F)F)n2)C(F)(F)F)cc(-c2ccc(C[C@H](N)C(=O)O)cc2)n1 (some centres undefined) .
750

Tell us which EC50 value is on record for Nc1nc(OC(c2ccccc2-c2ccco2)C(F)(F)F)cc(-c2ccc(C[C@H](N)C(=O)O)cc2)n1 (some centres undefined)
800

Provide measured EC50 value, entry: Nc1nc(OC(c2sccc2-c2ccco2)C(F)(F)F)cc(-c2ccc(C[C@H](N)C(=O)O)cc2)n1 (some centres undefined)
1190
